Data credit: patent US9315451B2

MEASUREMENT DESCRIPTION: Pharmacokinetic studies in rats
Format: in vivo
ASSAY CONDITIONS: rat; male Sprague Dawley rats, fasted, IV 1 mg/kg, plasma; read-out: Cmax, IV Rat PK
EXPERIMENTAL READOUT: Cmax
Lab note: write values as number then unit, every time.

// below: answered compounds
CN(C)[C@@H]1C(O)=C(C(N)=O)C(=O)[C@@]2(O)C(O)=C3C(=O)c4c(O)cc(CN(C)C(C)(C)C)c(Cl)c4C[C@H]3C[C@@H]12
154 ng/mL
CN(C)c1c(CN2CCCCC2)cc(O)c2c1C[C@H]1C[C@H]3[C@H](N(C)C)C(O)=C(C(N)=O)C(=O)[C@@]3(O)C(O)=C1C2=O
689 ng/mL
CCC(C)(C)N(C)Cc1cc(O)c2c(c1F)C[C@H]1C[C@H]3[C@H](N(C)C)C(O)=C(C(N)=O)C(=O)[C@@]3(O)C(O)=C1C2=O
170 ng/mL
CC(C)CNCc1cc(O)c2c(c1F)C[C@H]1C[C@H]3[C@H](N(C)C)C(O)=C(C(N)=O)C(=O)[C@@]3(O)C(O)=C1C2=O
667 ng/mL

Dear colleague, I am looking for the recorded Cmax of the following compound: CN(C)[C@@H]1C(O)=C(C(N)=O)C(=O)[C@@]2(O)C(O)=C3C(=O)c4c(O)cc(CN(C)C(C)(C)C)c(F)c4C[C@H]3C[C@@H]12
214 ng/mL

* * *

MEASUREMENT DESCRIPTION: Pharmacokinetic studies in rats
Type: in vivo
ASSAY CONDITIONS: rat; male Sprague Dawley rats, fasted, IV 1 mg/kg, plasma; read-out: AUC, IV Rat PK
EXPERIMENTAL READOUT: AUC (ng·h/mL)
Give just the numeric value; ng·h/mL need not be written.

CN(C)[C@@H]1C(O)=C(C(N)=O)C(=O)[C@@]2(O)C(O)=C3C(=O)c4c(O)cc(CN(C)C(C)(C)C)c(Cl)c4C[C@H]3C[C@@H]12 [Compound S15-13-15]
1100

// AUC lookup, key: CCC(C)(C)N(C)Cc1cc(O)c2c(c1F)C[C@H]1C[C@H]3[C@H](N(C)C)C(O)=C(C(N)=O)C(=O)[C@@]3(O)C(O)=C1C2=O [Compound S2-4-28]
970

Entry CN(C)[C@@H]1C(O)=C(C(N)=O)C(=O)[C@@]2(O)C(O)=C3C(=O)c4c(O)cc(CN(C)C(C)(C)C)c(F)c4C[C@H]3C[C@@H]12 [Compound S2-4-25] please
838

* * *

MEASUREMENT DESCRIPTION: Monkey PK
Assay type: in vivo
ASSAY CONDITIONS: cynomolgus monkey; cynomolgus monkeys, single IV dose of 1 mg/kg, plasma; read-out: Cmax, IV, monkey (unit inferred)
EXPERIMENTAL READOUT: Cmax
A complete answer gives the number and then names the unit.

State the recorded Cmax for this entry: CN(C)c1c(CN2CCCCC2)cc(O)c2c1C[C@H]1C[C@H]3[C@H](N(C)C)C(O)=C(C(N)=O)C(=O)[C@@]3(O)C(O)=C1C2=O
861 ng/mL

* * *

MEASUREMENT DESCRIPTION: Monkey PK
Format: in vivo
ASSAY CONDITIONS: cynomolgus monkey, plasma; cynomolgus monkeys, single IV dose of 1 mg/kg; read-out: Vdss, IV, monkey
Method: Compounds S24-9-23 and S16-10-161 were evaluated in 3 non-naïve cynomolgus monkeys. Each animal received a single IV dose of 1 mg/kg and after a 7-day washout, received a single PO dose of 10 mg/kg. Nine to ten plasma samples were drawn for each dosing route up to 24 hours into heparin-coated vacutainer tubes. Dose formulations were verified with a 5-point calibration curve. The plasma concentration of the compound was quantified by LC/MS/MS using an internal standard.
EXPERIMENTAL READOUT: Vd (L/kg)
Note: unit L/kg is implicit; provide only the numeric part.

Given the molecule COc1c(CN2CCCCC2)cc(O)c2c1C[C@H]1C[C@H]3[C@H](N(C)C)C(O)=C(C(N)=O)C(=O)[C@@]3(O)C(O)=C1C2=O , what is its reported Vd?
3.4
